biological target: T1, mucin subtype 5AC expressed on BxPC3 cells (human, UniProt P98088 28-5654); assay: flow cytometry on BxPC3 cells expressing mucin subtype 5AC, 20 ug/mL antibody, Alexa Fluor 488 anti-human IgG
T1 construct: whole, on cells; also called mucin 5AC; MUC5AC
EXPERIMENTAL_ENDPOINT: binding result

>  <BINDER>
humanized antibody 5 (antibody, V domains shown, Detected with anti-human IgG; also called VH-4 combined with VL-4; mucin subtype 5AC-specific humanized antibody) VH: EVQLLESGGGLVQPGGSLRLSCAASGFTFSNYGMSWVRQAPGKGLEWVSTISNSGRYTYFPDSVKGRFTISRDNSKNTLYLQMNSLRAEDTAVYYCAKHLDYANYDAMDYWGQGTLVTVSS VL: DIQMTQSPSSLAVSLGDRVTITCRASKSVTTSDFSYMHWYQQTPGKAPKLLIYLASNLESGVPSRFSGSGSGTDYTFTISSLQPEDIATYYCQHSREFPWTFGQGTKLQIT

>  <TEST_RESULT>
binds

$$$$
